- experimental details: cytotoxicity assay (MTT)
- Type: cell-based
- assay setup: mouse, murine macrophages
measured metric: CC50 at 48 h

| chemical string | readout value |
| --- | --- |
| C=C(C)c1cc2cc(C(C)=O)c(O)cc2o1 | > 25 µM |

====

- Test system: Trypanosoma cruzi epimastigotes (Tulahuen 2 strain)
- experimental details: in vitro anti-Trypanosoma cruzi activity (epimastigote growth, absorbance 600 nm)
- Format: cell-based
- assay setup: Trypanosoma cruzi, TULAHUEN, 120 h, read-out: IC50 on T. cruzi epimastigotes

| chemical string | IC50 |
| --- | --- |
| C=C(C)c1cc2cc(C(C)=O)c(O)cc2o1 | > 25 µM |
